The reported measurements were obtained from patent US7998965B2.

- Tested Target: purified recombinant human Aggrecanase-2 (Ag2t-Phe628-Strep) (Homo sapiens, UniProt Q9UNA0)
- Construct: the form used is denoted as Ag2t-Phe628-Strep (MW=41,737)
- Assay Details: In vitro fluorescence screen for Aggrecanase-2 inhibitors
- Format: biochemical
- Experimental Parameters: Table 2; read-out: Agg 2 IC50
Measured Attribute: IC50

Consider the reported IC50 for these molecules:
CC(C)(NC(=O)[C@H](CCC(=O)O)NC(=O)c1cccc(Oc2ccccc2)c1)c1ccccc1
> 200 µM
CN(CCc1ccccc1)C(=O)[C@H](CCC(=O)O)NC(=O)c1ccc2c(c1)Cc1ccccc1-2
> 22 µM
O=C(O)CC[C@H](NC(=O)c1ccc(Oc2ccccc2)cc1)C(=O)NC12CC3CC(CC(C3)C1)C2
> 22 µM
COc1ccc(-c2ccc(C(=O)N[C@@H](CCC(=O)O)C(=O)NCc3cc(OC)c(OC)c(OC)c3)cc2)c(OC)c1 [Example 17G]
3 to 8 µM
CC(C)(Cc1ccccc1)NC(=O)[C@H](CCC(=O)O)NC(=O)c1ccc(Br)cc1 [Example 18E]
> 11 µM

Prompt: Query (molecule): O=C(O)CC[C@H](NC(=O)c1ccc(C#CC(O)(c2ccccc2)c2ccccc2)cc1)C(=O)NCc1ccccc1 [Example 12K] ; field requested: IC50
Response: > 22 µM

Prompt: GET /values?readout=IC50&item= O=C(O)CC[C@H](NC(=O)c1ccc(-c2ccc(O)cc2)cc1)C(=O)NCC12CC3CC(CC(C3)C1)C2 [Example 17O]
Response: ~22 µM

Prompt: Which IC50 is listed for O=C(O)CC[C@H](NC(=O)c1cccc2c1Cc1ccccc1-2)C(=O)NCCCCCCO ?
Response: > 67 µM

----------
- Tested Target: purified recombinant human Aggrecanase-1 (rAgg1) (Homo sapiens, UniProt O75173)
- Sequence (O75173 213-837): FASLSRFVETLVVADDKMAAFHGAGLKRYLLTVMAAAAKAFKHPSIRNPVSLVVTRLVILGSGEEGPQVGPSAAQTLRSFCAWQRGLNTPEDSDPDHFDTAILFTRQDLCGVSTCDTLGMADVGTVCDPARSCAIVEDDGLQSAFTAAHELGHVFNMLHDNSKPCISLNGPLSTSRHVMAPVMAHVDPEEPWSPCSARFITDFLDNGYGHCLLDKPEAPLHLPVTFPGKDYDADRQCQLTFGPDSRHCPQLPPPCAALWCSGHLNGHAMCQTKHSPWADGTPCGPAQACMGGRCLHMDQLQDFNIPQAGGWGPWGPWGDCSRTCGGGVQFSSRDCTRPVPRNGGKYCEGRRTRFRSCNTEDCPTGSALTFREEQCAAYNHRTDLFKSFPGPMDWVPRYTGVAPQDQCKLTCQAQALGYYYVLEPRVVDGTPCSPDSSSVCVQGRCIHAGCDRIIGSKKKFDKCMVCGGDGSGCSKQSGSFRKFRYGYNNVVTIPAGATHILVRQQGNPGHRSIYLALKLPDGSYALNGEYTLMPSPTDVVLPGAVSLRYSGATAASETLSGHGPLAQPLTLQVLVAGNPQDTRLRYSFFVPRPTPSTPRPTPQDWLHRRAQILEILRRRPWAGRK
- Assay Details: In vitro fluorescence screen for Aggrecanase-1 inhibitors
- Assay type: biochemical
- Experimental Parameters: Table 1; read-out: Agg1 IC50
pIC50: −log10 of the molar value.
Measured Attribute: pIC50

Before answering, review these 3 worked examples.
CC(=O)Nc1ccc(-c2ccc(C(=O)N[C@@H](CCC(=O)O)C(=O)NCc3ccccc3)cc2)cc1 [Example 23]
< 5.22
COc1cc(CNC(=O)[C@H](CCC(=O)NO)NC(=O)c2ccc(-c3ccccc3)cc2)cc(OC)c1OC [Example 33A]
> 8.00
O=C(O)CC[C@H](NC(=O)c1ccc2c(c1)Cc1ccccc1-2)C(=O)NCCCc1ccccc1 [Example 8IIII]
> 7.52

Prompt: Please look up its pIC50: COc1cccc(CCNC(=O)[C@H](CCC(=O)NO)NC(=O)c2ccc(-c3ccccc3)cc2)c1 [Example 33C]
Response: > 8.00

----------
- Tested Target: purified recombinant human Aggrecanase-2 (Ag2t-Phe628-Strep) (Homo sapiens, UniProt Q9UNA0)
- Construct: the form used is denoted as Ag2t-Phe628-Strep (MW=41,737)
- Sequence (Q9UNA0 262-628): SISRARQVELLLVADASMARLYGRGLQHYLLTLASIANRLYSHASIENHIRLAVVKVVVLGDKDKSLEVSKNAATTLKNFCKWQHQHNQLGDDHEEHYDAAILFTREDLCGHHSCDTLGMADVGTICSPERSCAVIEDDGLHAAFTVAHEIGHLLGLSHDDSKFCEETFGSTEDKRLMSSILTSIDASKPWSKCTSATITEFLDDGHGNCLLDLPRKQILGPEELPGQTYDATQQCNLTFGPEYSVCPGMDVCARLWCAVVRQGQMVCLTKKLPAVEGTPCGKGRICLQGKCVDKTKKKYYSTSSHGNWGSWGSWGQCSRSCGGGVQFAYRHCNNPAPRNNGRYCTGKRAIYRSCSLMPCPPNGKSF
- Assay Details: In vitro fluorescence screen for Aggrecanase-2 inhibitors
- Assay type: biochemical
- Experimental Parameters: Table 3; read-out: Agg 2 IC50
Measured Attribute: IC50

CC(C)(Cc1ccc(Cl)cc1)NC(=O)[C@H](CCC(=O)O)NC(=O)c1ccc(-c2ccc(Cl)s2)nc1
0.1 to 0.3 µM
CC(C)(Cc1ccc(Cl)cc1)NC(=O)[C@H](CCC(=O)O)NC(=O)c1ccc(-c2cc(F)ccc2F)cc1 [Example 8BBBBBBB]
1 µM

Consider now this further molecule.
Prompt: Reported IC50, molecule CC(C)(Cc1ccccc1)NC(=O)[C@H](CCC(=O)O)NC(=O)c1ccc(-c2ccc(Cl)s2)nc1 : ____
Response: 0.1 to 0.3 µM
